Target: T1, rat CRFR1α (rat), P35353
T1 chain: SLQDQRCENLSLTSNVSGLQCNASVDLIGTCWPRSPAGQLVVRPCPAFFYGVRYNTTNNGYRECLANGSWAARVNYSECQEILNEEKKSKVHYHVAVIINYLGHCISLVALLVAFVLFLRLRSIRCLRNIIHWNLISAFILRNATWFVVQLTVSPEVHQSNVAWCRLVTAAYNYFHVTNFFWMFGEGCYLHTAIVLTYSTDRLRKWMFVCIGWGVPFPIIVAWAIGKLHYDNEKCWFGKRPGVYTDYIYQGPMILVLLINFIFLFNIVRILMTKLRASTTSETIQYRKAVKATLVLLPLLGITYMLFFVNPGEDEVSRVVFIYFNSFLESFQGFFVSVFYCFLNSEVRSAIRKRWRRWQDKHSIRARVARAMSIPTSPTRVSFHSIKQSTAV
Test: competition binding
Details: modification not given
outcome_measure: pIC50
Hey, just a heads up that pIC50 is the negative log base 10 of the concentration in molar.

-- ask Looking for the measured pIC50 of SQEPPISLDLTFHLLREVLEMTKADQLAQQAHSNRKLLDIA [ovine corticotropin-releasing factor] , can you help?
-- reply 8.74
